binders and their reported moDC activation (IL-12p70, pg/mL)
molecular target: human CD40 on cells (human, UniProt P25942 21-277); assay: cell-based or functional assay; also: test concentration or dose not given here
Sequence (P25942 21-277 limits assumed): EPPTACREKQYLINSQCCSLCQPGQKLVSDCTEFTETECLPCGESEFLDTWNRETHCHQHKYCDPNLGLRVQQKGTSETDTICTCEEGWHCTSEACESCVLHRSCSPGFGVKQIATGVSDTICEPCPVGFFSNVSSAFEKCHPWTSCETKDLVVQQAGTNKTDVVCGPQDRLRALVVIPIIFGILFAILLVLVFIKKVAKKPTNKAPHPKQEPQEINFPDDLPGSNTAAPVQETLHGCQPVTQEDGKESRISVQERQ
Report only the number, with the unit pg/mL understood.

Please give the documented moDC activation (IL-12p70, pg/mL) of AD163.27.12 (antibody, V domains shown, mouse hybridoma monoclonal; same VH as muAb6; also called muAb7) VH: QVQLQQPGAELVRPGSSVKLSCKASGYTFTSYWMHWVKQRPIQGLEWIGNIDPSNGETHYNQKFKDKATLTVDKSSSTAYMQLSSLTSEDSAVYYCARERIYYSGSTYDGYFDVWGTGTTVTVSS VL: QIVLTQSPAIMSASPGEKVTMTCSASSSLSYMHWYQQKSGTSPKRWIYDTSKLASGVPARFSGSGSGTSYSLTISSMEGEDGATYYCQQWSSNPWTFGGGTKLEIK
1510

Give the reported moDC activation (IL-12p70, pg/mL) for this binder. AD165.1.2 (antibody, V domains shown, mouse hybridoma monoclonal; also called muAb5) VH: DVQLQESGPGLVEPSQSLFLTCSVTGYSITTNYNWNWIRQFPGNKLEWMGYIRHDGTNNYNPSLKNRISIIRDTPKNQFFLKLNSVTTEDTAIYFCTRLDYWGQGTSVTVSS VL: DAVMTQTPLSLPVSLGDQASISCRSSQSLENSYGNTFLNWFLQRPGQSPQLLIYRVSNRFCGVPDRFSGSGSGTDFTLKISRVEAEDLGIYFCLQVTHVPYTFGGGTKLEIK
720

Tell me measured moDC activation (IL-12p70, pg/mL) for AD163.10.7 (antibody, V domains shown, mouse hybridoma monoclonal; also called muAb4) VH: LVQPGGSLSLSCAASGFTFSDYYMSWVRQPPGKALEWLGFIRNKANGYTTEFSASVKGRFTISRDNSQSILYLQMNALRAEDSATYYCARYGGLRQGWYFDVWGTGTTVTVSS VL: DIQMTQTTSSLSASLGDRVTISCRASQDIRNYLNWYQQKPDGTVKLLIYYTSRLHSGVPSRFSGSGSGTDYSLTISNLEQEDIATYFCQQGKTLPWTFGGGSKLEMK please.
1320

Indicate its recorded moDC activation (IL-12p70, pg/mL); the binder in question is AD163.7.2 (antibody, V domains shown, mouse hybridoma monoclonal; also called muAb8) VH: QVQLQQSGPELVKSGASVKISCKASGYTFTDYYINWVKQRPGQGLEWIGWIFPGSGSVYCNEQFKGQATLTVDRSSSTAYMLLSSLTSEDSAVYFCASSLGKFAYWGQGTLVTVSA VL: DIVMTQSQKFMSTTVGDRVSITCKASQSVVTAVAWYQQKPGQSPKLLIYSASNRYTGVPDRFTGSGSGTDFALTIRTMQSEDLADYFCQQYSSYPYTFGGGTKLEIK
905

Just for reference, patent US20210277137A1 is where these values come from.
